Reference source: patent US8802696B2

# SYSTEM_NAME: hDAT (Homo sapiens, UniProt Q01959)
# Sequence (Q01959 whole entry): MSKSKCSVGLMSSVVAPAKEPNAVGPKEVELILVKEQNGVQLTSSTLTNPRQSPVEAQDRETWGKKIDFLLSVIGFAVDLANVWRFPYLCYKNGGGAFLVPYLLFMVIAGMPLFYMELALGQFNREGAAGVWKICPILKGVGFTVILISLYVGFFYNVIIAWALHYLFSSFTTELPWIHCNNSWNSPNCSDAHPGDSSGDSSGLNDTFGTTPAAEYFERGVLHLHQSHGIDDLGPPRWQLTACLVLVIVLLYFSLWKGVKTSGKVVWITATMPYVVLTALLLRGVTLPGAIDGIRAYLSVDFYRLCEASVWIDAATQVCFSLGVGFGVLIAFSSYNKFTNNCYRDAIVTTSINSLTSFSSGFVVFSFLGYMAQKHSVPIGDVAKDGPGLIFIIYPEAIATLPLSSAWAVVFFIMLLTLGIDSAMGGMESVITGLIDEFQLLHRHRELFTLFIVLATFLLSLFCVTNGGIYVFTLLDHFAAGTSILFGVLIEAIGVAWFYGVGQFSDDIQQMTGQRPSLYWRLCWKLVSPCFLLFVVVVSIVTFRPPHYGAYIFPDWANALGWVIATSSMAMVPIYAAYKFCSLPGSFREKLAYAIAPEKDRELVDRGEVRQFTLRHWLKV
# ASSAY_REMARKS: DAT radioligand binding assay ([125I]RTI-55, HEK-293 membranes)
# CONDITIONS_USED: recombinant HEK-293 membranes
Where a name gives a salt, the structure may show the parent alone.
IC50 by entry:

MOLECULE	IC50, µM
Clc1ccc(C2CNCc3cc(-c4ccc5ncnn5c4)ccc32)cc1Cl (single isomer, unassigned; (-)) [Example 1 (−)-enantiomer]	0.105
Clc1ccc(C2CNCc3cc(-c4ccc5ncnn5c4)ccc32)cc1Cl (single isomer, unassigned; enantiomer 7) [Example 1 (+)-enantiomer, L-tartrate salt]	0.0308
